# PROTOCOL_DETAILS: xn = mol fraction of the nth substance listed, in the solute-free solvent
# TEST_SETTINGS: 283.15 K; x2 = 0.3
Entries and their solubility (g/100 g solution) values follow.
QUANTITY_MEASURED: solubility (g/100 g solution)

INSERT INTO results (compound, recorded_value) VALUES
  ('Cc1nc(C)c(C)nc1C + CCCCO + CC#N', 26.9),
  ('O=CC(O)C(O)C(O)CO (stereo unspecified) + CC(C)O + CCCCCC', 0.142),
  ('O=CC(O)C(O)C(O)CO (stereo unspecified) + CCO + CCCCCC', 0.139),
  ('O=CC(O)C(O)C(O)CO (stereo unspecified) + CO + ClCCl', 1.19),
  ('Cc1nc(C)c(C)nc1C + CO + CC#N', 28.2),
  ('O=CC(O)C(O)C(O)CO (stereo unspecified) + CCO + ClCCl', 0.669);

----------
Item-by-item account of solubility (g/100 g solution)
# PROTOCOL_DETAILS: xn = mol fraction of the nth substance listed, in the solute-free solvent
# TEST_SETTINGS: 288.15 K; x2 = 0.9
QUANTITY_MEASURED: solubility (g/100 g solution)

INSERT INTO results (compound, quantity_measured, recorded_value) VALUES
  ('O=CC(O)C(O)C(O)CO (stereo unspecified) + CCO + ClCCl', 'solubility (g/100 g solution)', 2.85),
  ('Cc1nc(C)c(C)nc1C + CCCCO + CC#N', 'solubility (g/100 g solution)', 30.6),
  ('Cl.NC(C=O)C(O)C(O)C(O)CO (stereo unspecified) + O + CO', 'solubility (g/100 g solution)', 16.6),
  ('Cl.NC(C=O)C(O)C(O)C(O)CO (stereo unspecified) + O + CCO', 'solubility (g/100 g solution)', 13.1),
  ('O=CC(O)C(O)C(O)CO (stereo unspecified) + CO + ClCCl', 'solubility (g/100 g solution)', 12.6),
  ('Cc1nc(C)c(C)nc1C + CO + CC#N', 'solubility (g/100 g solution)', 45.6);

----------
# PROTOCOL_DETAILS: xn = mol fraction of the nth substance listed, in the solute-free solvent
# TEST_SETTINGS: 303.15 K; x2 = 0.4
Decision: solubility (g/100 g solution) compared against 0.9; not below it gives met, below it gives not met.

INSERT INTO assay_data (compound, answer_label) VALUES
  ('Cl.NC(C=O)C(O)C(O)C(O)CO (stereo unspecified) + O + CO', 'met'),
  ('O=c1cc(-c2ccccc2)oc2cc(O)c(O)c(O)c12 + CCO + O', 'not met'),
  ('O=CC(O)C(O)C(O)CO (stereo unspecified) + CCO + CCCCCC', 'not met'),
  ('Cc1nc(C)c(C)nc1C + CO + CC#N', 'met'),
  ('O=CC(O)C(O)C(O)CO (stereo unspecified) + CC(C)O + CCCCCC', 'not met');

----------
# PROTOCOL_DETAILS: xn = mol fraction of the nth substance listed, in the solute-free solvent
# TEST_SETTINGS: 313.15 K; x2 = 0.4
QUANTITY_MEASURED: solubility (g/100 g solution)

INSERT INTO measurements (compound, recorded_value) VALUES
  ('Cl.NC(C=O)C(O)C(O)C(O)CO (configuration not stated) + O + CCO', 1.08),
  ('Cc1nc(C)c(C)nc1C + CCCCO + CC#N', 52.8),
  ('O=CC(O)C(O)C(O)CO (configuration not stated) + CC(C)O + CCCCCC', 0.518),
  ('O=CC(O)C(O)C(O)CO (configuration not stated) + CCO + CCCCCC', 0.599),
  ('Cc1nc(C)c(C)nc1C + CO + CC#N', 60.4),
  ('O=c1cc(-c2ccccc2)oc2cc(O)c(O)c(O)c12 + CCO + O', 0.554),
  ('Cl.NC(C=O)C(O)C(O)C(O)CO (configuration not stated) + O + CO', 3.82);

Sourced from the CheMixHub drug solubility set
